This collection of values is drawn from the nanobody polyreactivity screen of Harvey et al. (2022).

Test: yeast display, Sf9 membrane polyspecificity reagent, FACS + sequencing; frameworks hold sequencing errors
READOUT: polyreactivity (PSR sort gate)

Guide cases for polyreactivity (PSR sort gate), answers given:
QVLQQESCGLVQAGCSLRMSCAASGSISTALSMGWYRQAPGKERELVATISDGASTNYADSVKGRFTISRVNAKNTVYLQMNSLKPEDTAVYYFARYYFGNFGWGQGTQVTVSS ... high polyreactivity
QVQLVESGGGLVQAGGSLRLSCAASGRIFRGNAMGWYRQAPGKERELVAASTSSGDSTFYADSVKGRFTISRDNAKNTVYLQMNSLKPEDTAVYYCAANVRYQRTSGYYYWGQGTQVTVSS ... high polyreactivity
QVQLVESGGGLVQAGGSLRLSCAASGRTFYGNAMGWYRQAPGKERELVAAISWSGGGTYYADSVKGRFTISRDNAKNTVYLQMNSLKPEDTAVYYCAAQFGRKGSGVWTRPENYWGQGTQVTVSS ... high polyreactivity
QVQLVESGVGLVQAGGSLRLSCAASGFTFQYYAMGWYRQAPGKERELVAAITRGDSTNYADSVKGRFTISRDNAKNTVYLQMNSLKPEDTAVYYCAAGSAPSYWGGWYYERDYWGQGTQVTVSS ... low polyreactivity
QVQLVESGGGLVQAGGSLRLSCAASGFTFGRYAMGGYRQAPGKERELVAAITSRGGSTYYADSVKGRFTISRDNAKNTVYLQMNSLKPEDTAVYYCAAATNTGPRGYEYWGQGTQVTVSS ... high polyreactivity

Ask | I am curious: what polyreactivity (PSR sort gate) value has been reported for `QVQLVESGGGLVQAGGSLRLSCAASGRILPSNAMGWYRQAPGKERELVAGITSGGSTDYADSVKGRFTISRDNAKNTVFLQMNSLKPEDTAVYYCNKPFPYYPDGPNGYDYWGQGTQVTVSS` ?
Reply | low polyreactivity

Ask | I am curious: what polyreactivity (PSR sort gate) value has been reported for `QVQLVESGGGLVQAGGSLRLSCAASGFTFRYNTMGGYRQAPGKERELVAAISSSGSSTYYADSVKGRFTISRDNAKNTVYLQMNSLKPEDTAVYYCNAVHRRTRYGYWGQGTQVTVSS` ?
Reply | high polyreactivity

Ask | I am curious: what polyreactivity (PSR sort gate) value has been reported for `QVQLVESGGGLVQAGGSLRLSCAASGFTFSSYAMGWYRQEPGKERELVAAISTSGASTYYADSVKGRFTISRDNAKNTVYLQMNSLKPEDTAVYYCNVPQWHRWYRYPGEDYDYWGQGTQVTVSS` ?
Reply | high polyreactivity

====

Assay: yeast display, Sf9 membrane polyspecificity reagent, FACS + sequencing; frameworks hold sequencing errors
READOUT: polyreactivity (PSR sort gate)

QVQLVESGGGLVQAGGSLRLSCAASGRTFEGNAMGWYRQAPGKERELDAAITSGGRTNYADSVKGRFTISRDNAKNTVYLQMNSLKPEDTAVYYCAVETRDRSTSFPGQAYDYWGQGSQVTVSS ... low polyreactivity
QVQLVESGGGLVQAGGSLSLSCAASGRTFYRNAMGWYRQAPGKERELVAAISSDDSTNYADSVKGRFTISRDNAKNTVYLQMNSLKPEDTAVYYCNADYYYGYEYDYWGQGTQVTVSS ... low polyreactivity
QVQLVESGGGLVQAGGCLRLSCAASGSTFYVYDMGWYRQAPGKERELVAAMSKRRGTTYYADSVKGRFTISRDNAKNTVYLQMNSLKPEDTAVYYCAAVFRSPSAGYQGGYWGQGSQVTVSS ... high polyreactivity
QVQLVESGGGLVQAGGSLRLSCAASGRIFFNYAMGWYIQAPGKERELVARITGSGGRTYYADSVKGRFTISRDNAKNTVYLQMNSLKPEDTAVYYCNKVPGYKYDSWGQGTQVTVSS ... high polyreactivity
QVHLVESGGGLVQAGGSLRLSCAASGNTFYAYARGWYRQAPGKERELVAAIARAGNTYYADSVKGRFTISRDNAKNTVYLQMNSLKPEDTAVYYCNADDWWYGDNYWGQGTEVTVSS ... high polyreactivity
QVQLVESGGGLVQAGGSLRLSCAASGLTFPSYAMGWYRQAPGKERELVAAISSGDSTNYADSVKGRFTISRDNAKNTVYLQMNSLKPEDTAVYYCAVGLPHGGRRLYGSWYRFDYWGQGTQVTVSS ... low polyreactivity
QVQLVESGGGLVQAGGSLRLSCAASGRIFGAYAMGWYRQAPGKERELVAAISSRGGNTYYADSVKGRFTISRDNAKNTVYLQMNSLKPEDTAVYYCAARHDKRRQYYVGQSDFDYWGQGTQVTVSS ... low polyreactivity
QVQLVESGGGLVQAGGSLRLSCAASGSTFYIYAMGWYRQAPGKERELVAAINWRTGSTYYADSVKGRFTISRDNAKNTVYLQMNSLKPEDTAVYYCNAYTKHWSYWGQGTQVTVSS ... high polyreactivity
QVQLVESAGGLVQAGGSLRLSCAASGYIFSYNAMGGYRQAPGKERELVAAITASGGGTYYADSVKGRFTISRDNAKNTVYLHMNSLKQEDTAVYYCAADLSWSRVVFGDYDYWGQGTQVTVSS ... low polyreactivity
QVQLVESGGGLVQAGGRLRLSCAASGRIFSYAMGWYRHAPGNERELVGGISRSGGSTYYADSVKGRFTISRDNAKNTVYLQMNSQKPVDTAVYYCAADSSLSASEYDSWGQGTQVTVSS ... high polyreactivity

Moving on to the next sequence.
Ask | I am curious: what polyreactivity (PSR sort gate) value has been reported for `QVQLVESGGGLVQAGGSLRLSCAASGSIFGYYTMGWYRQAPGKERELVAAITRSGATTFYADSVKGRFTISRDNAKNTVYLQMNSLKPEDTAVYYCAAKARGYTRGYWGQGTQVTVSS` ?
Reply | high polyreactivity

====

Assay: yeast display, Sf9 membrane polyspecificity reagent, FACS + sequencing; frameworks hold sequencing errors
READOUT: polyreactivity (PSR sort gate)

Guide cases for polyreactivity (PSR sort gate), answers given:
QVQLVESGGALDQAGGSLRLICAASGRIFWYNAMGWYRQAPGKERELVAGIRSGGSTNYADSVKGRFTISRDNAKNPVYLQMNSLKPEDTAVYYCAARRWRTQDRSHFYYWGQGTQVTVSS ... low polyreactivity
QVQLVESGGGLVQAGGSLRLSCAASGSIFTVNAMGWYRQAPGKERELVATISVTGGSTYADSVKGRFTISRENAKNTVYLQMNSLKPEDTAVYYCAADKTVRWDFDYRGQGTQVTVSS ... low polyreactivity
QVQLVESGGGLVQAGGSLRLSCAASGFIFGSNAMGWYRQAPGKERELVATITKRGGTTYYADSVKGRFTISRDNAKNTVYLQMNSLKPEDTAVYYCNRSGPGFYSTRFNYWGQGTQVTVSS ... high polyreactivity
QVQLVESGGGLVQAGGSLRLSCAASGSIFYSYAMGWYRHAPGKERELVAAISWDASTYYADSVKGRFTISRDNAKNTVYLQMNSLKPEDTAVYYCNADIPYYFVYDAYDFWGQGTQVTVSS ... low polyreactivity
QVQLVESGGGLVQAGGSLRLSCAASGIIIRNYGMGCYRQAPGKERELVARIRWTGGSTYYADSVKGRFTISRDNAKNTVYLQMNSLKPEDTAVYYCAADIWQYSRIANYHPYDYWGQGTQVTVSS ... low polyreactivity
QVQLVESGGGLVQAGGSLRLSCAASGFIFWYYAMGWYRQAPGKERELVAAISSRGGSTYYADSVKGRFTISRDNAKNTVYLQMNSLKPEDTAVYYCNARYVYYGSGNDYWGQGTQVTVSS ... high polyreactivity
QVQLVESGGGLVQAGGSLRLSCAASGSIFPVNAMGWYRQAPGKERELVAAISEGSTSTYYADSVKGRFTISRDNAKNTVYLQMNSLKPEDTAVYYCAADYDTGYEYWGQGTQVTVSS ... low polyreactivity
QVQLVDSGGGLDQAGGSLRLSCAAAGSIFYSYAMGWYSQATGKDSELVADISSDGSTNYADSVKGRFTISRDNAKNTVYVQINSLKPEDTAVYYCAKKPSSARYVTIGFDEWGHGTQVTVSS ... low polyreactivity

Ask | I am curious: what polyreactivity (PSR sort gate) value has been reported for `QVQLVESGGGLVQAGGSLRLSCAPSGSTFFTYAMGWYRQAPGKERELVASISIGGSTNYADSVKGRFTISRDNAKNTVYLQMNSLIQEDSAVYYCAIRYFTFGVDYEYWGQGTQVTVSS` ?
Reply | low polyreactivity

Ask | I am curious: what polyreactivity (PSR sort gate) value has been reported for `QVQLVESAAGLVQAGGSLRLSCAASGRIFRYNTMGWYRQAPGKESELVAAITSGVRTNYADSVKGRFTISRDNAKNTVYLQMNSLKPEDTAVYYCAADPYWFFPNYDSWGQGTQVTVSS` ?
Reply | low polyreactivity

Ask | I am curious: what polyreactivity (PSR sort gate) value has been reported for `QVQLVESGGGLVQAGGSLRLSCAASGSIFSKYAMGWYRPAPGKERELVAAIASSGGSTYYADSVKGRFTISRDNAKNTVYFQMNSLKPEDTAVYYCAAGGRSVRYNYWGQGTQVTVSS` ?
Reply | high polyreactivity
